Listing of entries alongside the reported FACS Cell Binding (Fold Above Background).
- TEST TARGET: T1, human PRLR construct with an HA tag on HEK293/hPRLR cells (human, UniProt P16471 25-622)
- T1 sequence: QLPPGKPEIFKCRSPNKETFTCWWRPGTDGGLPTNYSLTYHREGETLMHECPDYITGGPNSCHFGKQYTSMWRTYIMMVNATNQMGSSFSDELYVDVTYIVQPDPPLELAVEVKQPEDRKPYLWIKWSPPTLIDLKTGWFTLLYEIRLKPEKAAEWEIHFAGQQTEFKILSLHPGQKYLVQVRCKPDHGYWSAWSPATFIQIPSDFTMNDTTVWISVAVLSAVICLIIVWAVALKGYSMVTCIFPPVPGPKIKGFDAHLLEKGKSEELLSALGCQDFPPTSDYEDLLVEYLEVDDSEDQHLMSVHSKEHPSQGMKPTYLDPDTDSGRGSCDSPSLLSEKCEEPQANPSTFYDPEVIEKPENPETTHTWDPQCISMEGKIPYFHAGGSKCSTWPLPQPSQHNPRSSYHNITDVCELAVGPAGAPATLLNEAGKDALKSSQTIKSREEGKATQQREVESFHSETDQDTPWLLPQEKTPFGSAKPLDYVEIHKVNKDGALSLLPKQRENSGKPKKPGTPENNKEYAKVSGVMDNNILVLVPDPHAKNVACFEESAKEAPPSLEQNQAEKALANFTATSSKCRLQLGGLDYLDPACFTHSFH
- EXPERIMENT NOTES: FACS on HEK293/hPRLR cells
Enter your answer as a number in fold; do not include the unit.

Would you please look over these solved cases?
{"BINDER": "H1H6967N (antibody, human IgG1, V domains shown, also called H2M6967N) VH: EVQLVESGGDLVHPGRSLRLSCAASGFPFDEYAMHWVRQVPGKGLEWVSGISWSNNNIGYADSVKGRFTISRDNAKNSLYLQMNSLRPEDTAFYYCAKSGIFDSWGQGTLVTVSS VL: EIVMTQSPATLSVSPGERATLSCRASQSVSRDLAWYQQKPGQAPRLLIHGASTRATGIPARFSGSGSGAEFTLIISSLQSEDFAVYYCQQYNNWPLTFGGGTKVEIK", "ASSAY RESULT": 38}
{"BINDER": "H1H6976N (antibody, human IgG1, V domains shown, also called H2M6976N) VH: EVQLLESGGGFVQPGGSLRLSCAASGFTFSSYAMSWVRQAPGKGLEWVSIISSNGRYTYYADSVKGRFTISRDNSKNTLYLQMNSLRAEDTAVYYCATVTGDWFDPWGQGTLVTVSS VL: DIQLTQSPSFLSASVGDRVTITCWASQDIDISLAWYQQKPGKAPKLLIYAASTLQSGVPSKFSGSGSGTDFTLTISSLQPEDFSTYYCQQLNSYPITFGQGTRLDIK", "ASSAY RESULT": 8}

Complete the entry with FACS Cell Binding (Fold Above Background) for H1H6953N (antibody, human IgG1, V domains shown, also called H1M6953N) VH: EVQLLESGGGLVQPGGTLRLSCAASGFTFSAYAMSWVRQAPGKGLEWVSSINVRAGDTYYADSVKGRFTISRDNSKNTLFLLMNSLRAEDTAAYYCAKARYSSNWGFDFWGQGTLVTVSS VL: DIVMTQSPDSLTVSLGARTTINCQSSQTILHSSNNHNYLAWYQQKPGLPPKLLIYWSSTRESGVPDRFSGSGSGTDFTLTISSLQAEDVAIYYCQQYSNTPYTFGQGTKLEIN
37
